These entries and their values trace back to patent US20150086555A1.

# Trimeric HA Binding: RLU per entry
test.target: recombinant soluble homotrimeric HA of A/Hong Kong/2108/03 (H9N2) (Influenza A virus A/HK/2108/2003(H9N2))
assay.info: HA microarray, BCC supernatant
test.parameters: remark: other sources report otherwise
Express it in RLU; write the number only.

Some binders with known Trimeric HA Binding: RLU results, for comparison:
>>> assay_result("TCN-537 (3194_D21) (antibody, V domains shown) VH: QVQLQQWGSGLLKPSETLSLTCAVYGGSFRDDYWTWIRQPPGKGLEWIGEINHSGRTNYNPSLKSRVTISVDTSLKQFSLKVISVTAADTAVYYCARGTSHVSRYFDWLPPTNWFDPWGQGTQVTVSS VL: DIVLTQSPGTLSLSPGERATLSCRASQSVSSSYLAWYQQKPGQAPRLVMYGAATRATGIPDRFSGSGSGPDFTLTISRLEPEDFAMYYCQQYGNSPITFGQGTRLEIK")
147
>>> assay_result("TCN-530 (5248_H10a) (antibody, V domains shown) VH: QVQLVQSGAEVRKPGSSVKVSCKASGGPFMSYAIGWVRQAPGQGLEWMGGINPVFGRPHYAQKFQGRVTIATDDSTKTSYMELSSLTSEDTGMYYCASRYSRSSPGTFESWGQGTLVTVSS VL: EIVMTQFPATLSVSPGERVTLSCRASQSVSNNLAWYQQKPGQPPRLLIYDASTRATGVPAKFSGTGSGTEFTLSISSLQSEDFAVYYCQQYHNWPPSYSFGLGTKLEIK")
486

Challenge: For the binder TCN-540 (5060_F05) (antibody, V domains shown) VH: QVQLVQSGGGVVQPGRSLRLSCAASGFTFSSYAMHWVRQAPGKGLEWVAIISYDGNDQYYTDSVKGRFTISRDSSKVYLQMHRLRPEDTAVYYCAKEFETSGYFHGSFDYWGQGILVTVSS VL: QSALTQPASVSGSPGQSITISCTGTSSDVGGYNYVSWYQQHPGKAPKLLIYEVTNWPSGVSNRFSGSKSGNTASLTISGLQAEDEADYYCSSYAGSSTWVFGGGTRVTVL , report Trimeric HA Binding: RLU.
Response given: 22
